Below, each entry is listed with its recorded IC50.
system: HCT116; experiment: Test A: Cytostatic Cell Culture Assay (GI50), HCT116; type: cell-based; conditions: Homo sapiens, HCT-116, 120 h; HCT116 cells, 5 days, SRB; read-out: G150 Colon HCT116

OC[C@H]1O[C@@H](n2cc(Cl)c3c(-c4cccs4)ncnc32)[C@H](O)[C@@H]1O    275 nM
OC[C@H]1O[C@@H](n2ccc3c(-c4ccsc4)ncnc32)[C@H](O)[C@@H]1O    216 nM

Problem: Provide one value: measured IC50 of OC[C@H]1O[C@@H](n2cc(Cl)c3c(-c4ccccc4)ncnc32)[C@H](O)[C@@H]1O
Solution: 1420 nM

Problem: Provide one value: measured IC50 of OC[C@H]1O[C@@H](n2ccc3c(-c4c[nH]cn4)ncnc32)[C@H](O)[C@@H]1O
Solution: 3690 nM
